# experiment: viability loss of HPDE-C7K cells – cell-based, fluorescence, HTS, primary screen (AID 431);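 note: 0% = DMSO solvent wells and 100% = doxorubicin-treated wells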
# protocol.conditions: HPDE-C7K KRASV12 cells, Alamar Blue viability, 48 h; at 10 µM; stronger effect = higher value
About 1,100 (1.7%) of roughly 63,000 compounds were called active. The entries come from a sample that favours actives as a whole. Results with a measured potency or affinity are listed apart.
Kindly apply the following: 1 if cytotoxicity is less than 10%, -1 in every other case.

Answered cases to consult:
# molecule, label.value
data = [
    ("CCOC(=O)C1=C(N)n2c(s/c(=C\\c3ccco3)c2=O)=C(C(=O)OC(C)C)C1c1ccco1 (stereo not given)", 1),
    ("Cc1nn(C)c(C)c1S(=O)(=O)NC1CCCC1", 1),
    ("COc1ccc(CCNC(=O)CC2Nc3cc(C)c(C)cc3NC2=O)cc1OC (stereo not given)", 1),
]

Request: Determine if N#CC1=C(N)n2c(s/c(=C\c3ccco3)c2=O)=C(C#N)C1c1ccco1 (stereo not given) shows cytotoxicity strictly lower than 10%.
Response: 1

Request: Hello, is cytotoxicity of the following molecule strictly smaller than 10%? CCOC(=O)c1ccc(NC(=O)NC(C)C2CCCO2)cc1 (stereo not given)
Response: 1

Request: Is cytotoxicity strictly under 10% for the entry Oc1ccccc1-c1cc(-c2cccc(F)c2)n[nH]1 ?
Response: -1

Request: Does Clc1ccc2[nH]c3c(NCC4CCCO4)ncnc3c2c1 (stereo not given) have cytotoxicity strictly under 10%?
Response: -1

Request: Lab note: cytotoxicity threshold 10%. Does this molecule come in strictly under it? O=C(Nc1ccccc1C(=O)NCc1ccco1)c1ccco1
Response: 1

Request: Does CC[C@@H](C)[C@H](NC(=O)C1CCN(C(=O)[C@@H](NS(=O)(=O)c2ccc(C)cc2)C(C)C)CC1)C(=O)O have cytotoxicity strictly under 10%?
Response: 1

Request: Is cytotoxicity strictly under 10% for the entry O=S(=O)(Nc1ccc2c(c1)OCCO2)c1ccc2oc3ccccc3c2c1 ?
Response: -1

Request: Please let me know if COc1cc(-c2nnc(COc3ccc4cc(Br)ccc4c3)o2)cc(OC)c1OC shows cytotoxicity below 10%.
Response: -1

----------
# experiment: viability loss of HPDE-C7K cells – cell-based, fluorescence, HTS, primary screen (AID 431);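 note: 0% = DMSO solvent wells and 100% = doxorubicin-treated wells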
# protocol.conditions: HPDE-C7K KRASV12 cells, Alamar Blue viability, 48 h; at 10 µM
Among all 63,000 compounds or so, about 1,100 (1.7%) were called active.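 The calls were made as follows: active = compounds whose percent cytotoxicity in the single-dose primary screen, scaled between solvent and toxic-drug controls, exceeds 50; inactive = the rest.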 This is one part of a sample in which actives are shown more often than they occur. Entries with a potency or affinity are not part of this list.
Pick one: true (1) (active), false (0) (inactive)

Check out these entries, answers already filled in.
# compound, label.value
rows = [
    ("Cc1cccc(-c2nnc(NC(=O)c3ccc(Cl)cc3)o2)c1", "true (1)"),
    ("CCOc1cc(C(=O)N2CCOCC2)ccc1OCc1ccccc1", "false (0)"),
    ("CCC1CCCCN1CCNC(=O)C1CCN(S(=O)(=O)c2c(C)noc2C)CC1 (stereo not given)", "false (0)"),
]

Request: Returns: the outcome recorded for COc1ccc(C(=O)Nc2nnc(-c3ccccc3)o2)cc1OC in this assay.
Response: false (0)

Request: What did this assay record as the result for COc1cccc(C(=O)Nc2nnc(-c3ccc(Cl)cc3)o2)c1 ?
Response: true (1)

Request: Outcome? CN(CCCn1c(=S)[nH]c2ncccc2c1=O)Cc1ccccc1
Response: false (0)
